Target: human Nav1.6 (hNav1.6) (Homo sapiens, UniProt Q9UQD0)
Construct: expressed in transfected cells; host or cells: HEK-293 (G418 selection)
Sequence (Q9UQD0 whole entry): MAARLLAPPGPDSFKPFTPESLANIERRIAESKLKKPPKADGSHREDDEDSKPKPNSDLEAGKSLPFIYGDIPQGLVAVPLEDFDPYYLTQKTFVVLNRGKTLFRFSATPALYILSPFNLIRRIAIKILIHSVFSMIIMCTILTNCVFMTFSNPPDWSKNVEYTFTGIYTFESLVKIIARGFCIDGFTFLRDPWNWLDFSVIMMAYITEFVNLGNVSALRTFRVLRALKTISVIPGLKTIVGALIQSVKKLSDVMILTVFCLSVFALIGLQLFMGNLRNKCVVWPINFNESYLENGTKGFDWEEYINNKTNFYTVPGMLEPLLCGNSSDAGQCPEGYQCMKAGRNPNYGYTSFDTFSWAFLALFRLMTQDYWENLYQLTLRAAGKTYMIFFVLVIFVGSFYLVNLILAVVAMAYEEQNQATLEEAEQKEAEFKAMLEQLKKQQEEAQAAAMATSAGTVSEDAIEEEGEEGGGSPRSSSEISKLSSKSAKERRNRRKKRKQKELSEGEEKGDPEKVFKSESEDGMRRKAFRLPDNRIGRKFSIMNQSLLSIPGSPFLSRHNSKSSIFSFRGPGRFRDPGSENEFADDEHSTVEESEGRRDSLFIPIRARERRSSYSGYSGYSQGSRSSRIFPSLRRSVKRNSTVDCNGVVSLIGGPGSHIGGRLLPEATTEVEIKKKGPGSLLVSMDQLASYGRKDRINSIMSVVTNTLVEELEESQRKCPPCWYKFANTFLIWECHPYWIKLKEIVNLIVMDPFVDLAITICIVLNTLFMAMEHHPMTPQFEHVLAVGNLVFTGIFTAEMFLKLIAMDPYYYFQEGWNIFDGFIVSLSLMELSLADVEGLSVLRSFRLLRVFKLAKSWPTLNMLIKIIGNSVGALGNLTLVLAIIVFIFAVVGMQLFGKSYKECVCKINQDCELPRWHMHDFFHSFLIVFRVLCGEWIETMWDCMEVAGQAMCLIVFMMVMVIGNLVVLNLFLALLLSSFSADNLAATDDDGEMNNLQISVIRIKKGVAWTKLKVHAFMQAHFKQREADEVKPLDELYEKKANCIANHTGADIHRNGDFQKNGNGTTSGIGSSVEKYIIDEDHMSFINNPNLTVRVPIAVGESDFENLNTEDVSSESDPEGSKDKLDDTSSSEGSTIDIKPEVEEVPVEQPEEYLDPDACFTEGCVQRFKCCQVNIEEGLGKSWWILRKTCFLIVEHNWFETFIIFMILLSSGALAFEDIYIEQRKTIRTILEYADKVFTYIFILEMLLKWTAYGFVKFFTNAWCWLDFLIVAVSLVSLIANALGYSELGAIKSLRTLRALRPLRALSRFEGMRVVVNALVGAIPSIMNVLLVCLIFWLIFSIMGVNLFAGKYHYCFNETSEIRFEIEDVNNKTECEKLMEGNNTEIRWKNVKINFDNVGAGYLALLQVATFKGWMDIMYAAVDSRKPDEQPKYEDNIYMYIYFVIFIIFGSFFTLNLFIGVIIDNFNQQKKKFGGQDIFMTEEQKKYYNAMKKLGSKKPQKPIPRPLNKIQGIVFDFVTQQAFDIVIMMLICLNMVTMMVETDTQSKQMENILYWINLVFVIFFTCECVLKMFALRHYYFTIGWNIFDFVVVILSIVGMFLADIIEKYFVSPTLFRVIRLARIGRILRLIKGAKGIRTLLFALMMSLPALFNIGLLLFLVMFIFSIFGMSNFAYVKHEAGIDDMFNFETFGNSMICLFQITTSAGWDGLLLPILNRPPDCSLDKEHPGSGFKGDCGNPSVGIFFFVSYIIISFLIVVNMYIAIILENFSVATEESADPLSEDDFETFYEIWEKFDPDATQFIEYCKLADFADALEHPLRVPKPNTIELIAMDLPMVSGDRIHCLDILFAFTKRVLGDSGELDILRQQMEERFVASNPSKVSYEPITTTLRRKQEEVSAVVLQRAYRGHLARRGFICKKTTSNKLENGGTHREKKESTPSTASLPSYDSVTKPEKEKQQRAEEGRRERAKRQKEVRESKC
Experiment: Modulation of late sodium current (INaL), PatchXpress electrophysiology
Format: cell-based
Details: HEK293; 1 μM compound; HEK-293 cells expressing recombinant human Nav channel; late current evoked by 300 nM ATX-II; steady-state inhibition; read-out: INaL v1.6 (1 μM, % Inhibition)
Procedure: Functional characterization of exemplary compounds to modulate INaL expressed by the Nav1.6 voltage-gated sodium channel was accomplished using the PatchXpress™ high throughput electrophysiology platform (Molecular Devices, Sunnyvale, Calif.). […] INaL amplitude and stability were determined by analyzing the mean current amplitude over the final 20 ms of the test pulse. […]
MEASUREMENT_NAME: inhibition at 1 µM

MOLECULE | MEASUREMENT_NAME | EXPERIMENTAL_RESULT
O=c1oc2ccc(-c3ccc(OC(F)(F)F)cc3)nc2n1C[C@@H]1CCCCO1 (single isomer, unassigned) | inhibition at 1 µM | 30 to 70%
O=c1oc2ccc(-c3ccc(OC(F)(F)F)cc3)cc2n1C[C@H]1CCCOC1 (single isomer, unassigned) | inhibition at 1 µM | > 70%

Prompt: Which inhibition at 1 µM is reported for this molecule? "Cn1nccc1Cn1c(=O)oc2ccc(-c3ccc(OC(F)(F)F)cc3)nc21"
Completion: 30 to 70%
